The values you see were collected from ChEMBL document CHEMBL2406999.

Target: Ubiquitin carboxyl-terminal hydrolase 5 (Homo sapiens)
Assay: Competitive inhibition of wild type human USP5 expressed in Escherichia coli BL21(DE3) using Ub-AMC as substrate
measured parameter: pKi
Scale explanation: pKi corresponds to minus log10 of a concentration expressed in moles per litre.

For the compound O=C(Cc1ccccc1)Oc1c(OC(=O)Cc2ccccc2)c(-c2ccc(O)cc2)c(O)c(O)c1-c1ccc(O)cc1 [VIALININ A] , give its reported pKi.
4.90

* * *

Molecular target: Ubiquitin carboxyl-terminal hydrolase 5 (Homo sapiens, UniProt P45974)
Sequence (P45974 whole entry): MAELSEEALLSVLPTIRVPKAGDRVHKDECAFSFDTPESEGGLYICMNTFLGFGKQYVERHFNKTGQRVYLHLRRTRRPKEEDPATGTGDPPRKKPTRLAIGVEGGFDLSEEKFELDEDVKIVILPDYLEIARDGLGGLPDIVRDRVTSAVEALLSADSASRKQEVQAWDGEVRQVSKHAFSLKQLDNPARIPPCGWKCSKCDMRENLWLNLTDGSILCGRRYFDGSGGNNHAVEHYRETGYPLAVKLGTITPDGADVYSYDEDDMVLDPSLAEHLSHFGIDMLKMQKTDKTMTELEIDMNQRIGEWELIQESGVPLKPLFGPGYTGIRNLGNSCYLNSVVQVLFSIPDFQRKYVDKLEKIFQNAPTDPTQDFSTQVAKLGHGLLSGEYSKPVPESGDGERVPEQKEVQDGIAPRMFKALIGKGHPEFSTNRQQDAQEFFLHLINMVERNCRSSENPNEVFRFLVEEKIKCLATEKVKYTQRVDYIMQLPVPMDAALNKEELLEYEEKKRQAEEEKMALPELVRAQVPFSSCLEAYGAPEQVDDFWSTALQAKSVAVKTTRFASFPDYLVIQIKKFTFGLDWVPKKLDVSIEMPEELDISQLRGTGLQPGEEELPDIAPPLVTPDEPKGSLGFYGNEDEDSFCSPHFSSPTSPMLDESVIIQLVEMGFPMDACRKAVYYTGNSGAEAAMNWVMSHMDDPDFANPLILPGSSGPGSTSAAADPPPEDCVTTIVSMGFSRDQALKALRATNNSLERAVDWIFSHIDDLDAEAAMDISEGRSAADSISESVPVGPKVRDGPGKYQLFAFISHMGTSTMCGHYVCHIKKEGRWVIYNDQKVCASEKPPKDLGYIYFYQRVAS
Assay: Inhibition of wild type human USP5 expressed in Escherichia coli BL21(DE3) using Ub-AMC as substrate after 60 mins by fluorometric analysis
measured parameter: pIC50
Scale explanation: pIC50 corresponds to minus log10 of a concentration expressed in moles per litre.

For the molecule O=C(Cc1ccccc1)Oc1c(OC(=O)Cc2ccccc2)c(-c2ccc(O)cc2)c(O)c(O)c1-c1ccc(O)cc1 [VIALININ A] , give its reported pIC50.
5.23

* * *

Biological target: Ubiquitin carboxyl-terminal hydrolase 5 (Homo sapiens, UniProt P45974)
Assay: Inhibition of USP5 in human Z138 cells after 1 hr by immunoblotting analysis
Assay type: cell-based
measured parameter: pIC50
Scale explanation: pIC50 corresponds to minus log10 of a concentration expressed in moles per litre.

For the compound CCC[C@H](NC(=O)/C(C#N)=C/c1cccc(Br)n1)c1ccccc1 , give its reported pIC50.
5.52

* * *

Biological target: Ubiquitin carboxyl-terminal hydrolase 5 (Homo sapiens)
Assay: Inhibition of wild type human USP5 expressed in Escherichia coli BL21(DE3) using Ub-AMC as substrate after 60 mins by fluorometric analysis
measured parameter: pKi
Scale explanation: pKi corresponds to minus log10 of a concentration expressed in moles per litre.

For the compound O=C(Cc1ccccc1)Oc1c(OC(=O)Cc2ccccc2)c(-c2ccc(O)cc2)c(O)c(O)c1-c1ccc(O)cc1 [VIALININ A] , give its reported pKi.
5.40

* * *

Molecular target: Ubiquitin carboxyl-terminal hydrolase isozyme L1 (Homo sapiens)
Sequence (P09936 whole entry): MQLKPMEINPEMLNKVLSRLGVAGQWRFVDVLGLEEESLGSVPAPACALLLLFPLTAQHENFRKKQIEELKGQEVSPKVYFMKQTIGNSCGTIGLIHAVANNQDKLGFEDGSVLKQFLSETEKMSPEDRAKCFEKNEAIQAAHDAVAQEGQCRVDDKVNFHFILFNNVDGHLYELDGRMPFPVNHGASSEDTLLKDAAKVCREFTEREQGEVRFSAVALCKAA
Experiment: Inhibition of UCH-L1 in human Z138 cells after 1 hr by immunoblotting analysis
Assay type: cell-based
measured parameter: pIC50
Scale explanation: pIC50 corresponds to minus log10 of a concentration expressed in moles per litre.

For the molecule CCC[C@H](NC(=O)/C(C#N)=C/c1cccc(Br)n1)c1ccccc1 , give its reported pIC50.
5.52

* * *

Target: Ubiquitin carboxyl-terminal hydrolase isozyme L1 (Homo sapiens)
Test: Inhibition of human UCH-L1 using Ub-AMC as substrate after 60 mins by fluorometric analysis
measured parameter: pIC50
Scale explanation: pIC50 corresponds to minus log10 of a concentration expressed in moles per litre.

For the compound O=C(Cc1ccccc1)Oc1c(OC(=O)Cc2ccccc2)c(-c2ccc(O)cc2)c(O)c(O)c1-c1ccc(O)cc1 , give its reported pIC50.
4.65

* * *

Target: Ubiquitin carboxyl-terminal hydrolase 4 (Homo sapiens, UniProt Q13107)
Sequence (Q13107 whole entry): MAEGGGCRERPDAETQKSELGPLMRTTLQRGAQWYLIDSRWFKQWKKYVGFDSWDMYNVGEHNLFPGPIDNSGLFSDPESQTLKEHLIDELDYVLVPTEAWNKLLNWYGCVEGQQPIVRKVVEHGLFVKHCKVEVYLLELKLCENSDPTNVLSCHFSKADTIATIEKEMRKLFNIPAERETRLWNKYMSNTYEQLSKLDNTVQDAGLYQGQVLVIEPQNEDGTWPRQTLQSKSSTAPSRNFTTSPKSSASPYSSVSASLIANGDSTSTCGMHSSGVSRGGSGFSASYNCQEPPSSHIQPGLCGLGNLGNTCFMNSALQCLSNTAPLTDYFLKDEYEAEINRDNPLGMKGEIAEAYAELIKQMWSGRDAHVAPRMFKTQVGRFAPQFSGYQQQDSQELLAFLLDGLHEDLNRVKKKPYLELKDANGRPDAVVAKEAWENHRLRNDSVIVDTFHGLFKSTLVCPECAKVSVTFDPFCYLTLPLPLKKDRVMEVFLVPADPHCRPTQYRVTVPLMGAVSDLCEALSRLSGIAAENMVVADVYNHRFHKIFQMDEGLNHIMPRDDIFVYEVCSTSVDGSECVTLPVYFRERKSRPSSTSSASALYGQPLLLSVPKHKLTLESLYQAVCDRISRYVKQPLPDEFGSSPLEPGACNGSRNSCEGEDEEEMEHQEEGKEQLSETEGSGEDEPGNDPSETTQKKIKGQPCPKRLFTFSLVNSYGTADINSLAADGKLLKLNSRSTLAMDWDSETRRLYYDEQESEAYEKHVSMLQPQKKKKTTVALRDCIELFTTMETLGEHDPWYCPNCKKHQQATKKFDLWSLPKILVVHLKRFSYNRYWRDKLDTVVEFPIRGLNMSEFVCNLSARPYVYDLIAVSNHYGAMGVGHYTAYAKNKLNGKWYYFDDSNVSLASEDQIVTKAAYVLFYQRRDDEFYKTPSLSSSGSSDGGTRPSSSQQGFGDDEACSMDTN
measured parameter: IC50 (nM)
Only the number, expressed in nM, is required.

# assay system Ubiquitin carboxyl-terminal hydrolase 4 (Homo sapiens, UniProt Q13107): give IC50 of O=C(Cc1ccccc1)Oc1c(OC(=O)Cc2ccccc2)c(-c2ccc(O)cc2)c(O)c(O)c1-c1ccc(O)cc1
1500
